# systemName: T1, human IL-2Rβ (human, UniProt P14784 27-240, limits assumed)
# T1 construct: Recombinant human IL-2Rβ protein, coated on ELISA plates or immobilized on a CM5 chip; also called hu IL-2R; interleukin 2 receptor β-chain
# T1 sequence: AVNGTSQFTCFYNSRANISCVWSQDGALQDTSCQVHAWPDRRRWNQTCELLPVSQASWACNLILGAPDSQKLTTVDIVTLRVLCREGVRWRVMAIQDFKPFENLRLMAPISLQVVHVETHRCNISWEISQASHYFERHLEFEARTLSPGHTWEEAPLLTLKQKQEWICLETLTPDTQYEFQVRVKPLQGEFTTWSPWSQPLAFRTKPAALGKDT
# runDescription: P.E. binding ELISA, human IL-2Rβ coated
# Protocol: In a binding ELISA, human or mouse IL-2Rα, IL-2Rβ and IL-2Rγ proteins were coated directly on maxisorp microtiter plates overnight at 4° C. Free binding sites were blocked using 4% Marvel in PBS for 1 hour. Next, 1:5 dilution of P.E. in 1% Marvel/PBS were added to wells and incubated for 1 hour. […] Binding specificity was determined based on O.D. at 450 nm values compared to negative controls.
measurementKind: OD450 nm (P.E. binding ELISA) (OD450 nm)
Numbers only, in OD450 nm.

Working through the 2 binders below one at a time, give OD450 nm (P.E. binding ELISA) for each.
1. FJ1427 P035MP06E03 (VHH, Soluble VHH in periplasmic extract (P.E.); also called Clone nr) VHH: EVQLVESGGGLVQAGGSLRLSCAASGDVFVRYTMAWFRQAPGKEREFVASVTDSGRTTDYVDSVKGRFTVSRDNAKNTVYLQMNNLKPEDTAVYYCAANTDYFQIKSLDRNTWGQGTQVTVSP
2. FJ1427_P035MP06B10 (VHH, Soluble VHH in periplasmic extract (P.E.); also called Clone nr; 554) VHH: QVQLVESGGGLVQAGGSLRLSCAASGDVLVRYTMAWFRQAPGKEREFVASVTDSGRTTEYVDSVKGRFTVSRDNAKNTAYLQMNNLKPEDTAIYYCAANTDYFQIRSLDLNTWGQGTQVTVSS

Reply |
1: 0.57; 2: 0.264

Please report OD450 nm (P.E. binding ELISA) for every entry that follows.
1. FJ1427_P035MP06F09 (VHH, Soluble VHH in periplasmic extract (P.E.); also called Clone nr; 550) VHH: QVQLVESGGGLVQAGGSLTLSCAASGRAFSNYPVGWFRQAPGKEREFVAAITWLSGSTLYADSVEGRFTISRDNAKNTVYLLMSSLKPEDTALYFCAAALKTITRGQNDYSYWGQGTQVTVSS
2. FJ1427 P035MP06E12 (VHH, Soluble VHH in periplasmic extract (P.E.); also called Clone nr) VHH: QVQLVESGGGLVQAGGSLRLSCAASGDVFVRYTMAWFRQAPGKEREFVASVTDSGRTTDYVDSVKGRFTVSRDNAKNTVYLQMNALKPEDTAVYYCAANTDYFQIKSLDLNTWGQGTQVTVSS

Reply |
[0.564, 0.271]

Data origin, for the record: patent US20240409645A1
